# System: Human immunodeficiency virus 1
# assayProtocol: Antiviral activity against ENV pseudotyped CCR5-tropic HIV1 p1054.TC4.1499
# Format: functional
# statedConditions: Human immunodeficiency virus 1, p1054.TC4.1499
observationType: IC50 (nM)
Answers are plain numbers, in nM.

Entry NCC(NC(=O)c1ccc(-c2cc(F)c(Cl)c(F)c2)[nH]1)c1ncc(CO)s1 (stereo in doubt) has what IC50?
650

* * *

# Test system: MT2
# assayProtocol: Cytotoxicity against human MT2 cells incubated for 4 days by XTT assay
# Assay type: cell-based
# statedConditions: mt2, 96 h, 96 h
observationType: CC50
Your reply should be a number followed by the unit it is expressed in.

Check out these entries, answers already filled in.
compound="Cc1cc(-c2ccc(C(=O)NC(CCN)c3nc(C)c(CO)s3)[nH]2)ccc1F (stereo in doubt; 63B)" observationtype=CC50 reading="34.7 µM"
compound="CNCC(NC(=O)c1ccc(-c2ccc(C)c(F)c2)[nH]1)c1nc(C)c(CO)s1 (stereo in doubt; 43B)" observationtype=CC50 reading="30.6 µM"
compound="CNCCC(NC(=O)c1ccc(-c2ccc(F)c(C)c2)[nH]1)c1nc(C)c(CO)s1 (stereo in doubt; 66B)" observationtype=CC50 reading="25.3 µM"
compound="Cc1cc(-c2ccc(Cl)cc2)[nH]c1C(=O)NC(CN)c1nc(C)c(CO)s1 (stereo in doubt; 27B)" observationtype=CC50 reading="24.9 µM"
compound="COc1cc(C(=O)NC(CN)c2nc(C)c(CO)s2)[nH]c1-c1ccc(Cl)cc1 (stereo in doubt; 29B)" observationtype=CC50 reading="15.7 µM"

For the 3 compounds below, give their CC50 values.
1. CNCC(NC(=O)c1ccc(-c2ccc(C)c(F)c2)[nH]1)c1ncc(CO)s1 (stereo in doubt; 87B)
2. Cc1ccc(-c2ccc(C(=O)NC(CN)c3ncc(CO)s3)[nH]2)cc1F (stereo in doubt)
3. Cc1nc(C(CCN)NC(=O)c2ccc(-c3ccc(F)c(Cl)c3)[nH]2)sc1CO (stereo in doubt; 62B)

28.3 µM
38 µM
24.9 µM

* * *

# assayProtocol: Metabolic stability in human liver microsomes assessed as compound remaining at 45 mins in presence of NADPH by LC-MS/MS analysis
# Assay type: ADME, microsome
# statedConditions: read-out: Stability
Could you please report measured remaining at […] for the items listed next?

molecule="NCC(NC(=O)c1ccc(-c2cc(F)c(Cl)c(F)c2)[nH]1)c1ncc(CO)s1 (stereo in doubt)" reading=97.4%
molecule="Cc1nc(C(NC(=O)c2ccc(-c3ccc(Cl)cc3)[nH]2)C2CCCCN2)sc1CO (stereo not drawn)" reading=84%

Here's the next entry for you.
Entry Cc1ccc(-c2ccc(C(=O)NC(CN)c3ncc(CO)s3)[nH]2)cc1F (stereo in doubt) has what remaining at […]?
101%

* * *

# Test system: Human immunodeficiency virus 1
# assayProtocol: microbe, parasite or virus in culture
# statedConditions: Human immunodeficiency virus 1, subtype C Du422, clone 1
observationType: IC50

Entry NCC(NC(=O)c1ccc(-c2cc(F)c(Cl)c(F)c2)[nH]1)c1ncc(CO)s1 (stereo in doubt) has what IC50?
320 nM

* * *

# Tested on: TZM
# assayProtocol: Cytotoxicity against human TZM-bl cells incubated for 3 days by XTT assay
# Assay type: cell-based
# statedConditions: tzm, 72 h
observationType: CC50 (µM)
Answers are plain numbers, in µM.

compound="CNCC(NC(=O)c1ccc(-c2ccc(Cl)c(F)c2)[nH]1)c1nc(C)c(CO)s1 (stereo in doubt; 42B)" reading=21.3
compound="CNCC(NC(=O)c1ccc(-c2ccc(C)c(F)c2)[nH]1)c1nc(C)c(CO)s1 (stereo in doubt; 43B)" reading=34.2
compound="Cc1ccc(-c2ccc(C(=O)NC(CN)c3ncc(CO)s3)[nH]2)cc1F (stereo in doubt)" reading=38.8
compound="CNCCC(NC(=O)c1ccc(-c2ccc(F)c(Cl)c2)[nH]1)c1nc(C)c(CO)s1 (stereo in doubt; 65B)" reading=22.3
compound="Cc1cc(-c2ccc(Cl)cc2)[nH]c1C(=O)NC(CN)c1nc(C)c(CO)s1 (stereo in doubt; 27B)" reading=27.2
compound="Cc1cc(C(=O)NC(CN)c2nc(C)c(CO)s2)[nH]c1-c1ccc(Cl)cc1 (stereo in doubt; 28A)" reading=22.2
compound="Cc1cc(C(=O)NC(CN)c2nc(C)c(CO)s2)[nH]c1-c1ccc(Cl)cc1 (stereo in doubt; 28B)" reading=5.2

Here's the next entry for you.
Entry CNCC(NC(=O)c1ccc(-c2cc(F)c(Cl)c(F)c2)[nH]1)c1ncc(CO)s1 (stereo in doubt; 88B) has what CC50?
13.9

* * *

# assayProtocol: Unbound fraction in human plasma at 5 uM by LC-MS/MS based equilibrium dialysis
# Type: ADME, cell-free
observationType: fraction unbound at 5 µM
One number for each entry.

Check out these entries, answers already filled in.
molecule="NCC(NC(=O)c1ccc(-c2cc(F)c(Cl)c(F)c2)[nH]1)c1ncc(CO)s1 (stereo in doubt)" observationtype="fraction unbound at 5 µM" reading=0.1
molecule="Cc1nc(C(NC(=O)c2ccc(-c3ccc(Cl)cc3)[nH]2)C2CCCCN2)sc1CO (stereo not drawn)" observationtype="fraction unbound at 5 µM" reading=0.114

Entry Cc1ccc(-c2ccc(C(=O)NC(CN)c3ncc(CO)s3)[nH]2)cc1F (stereo in doubt) has what fraction unbound at 5 µM?
0.04

* * *

# assayProtocol: Cytotoxicity against human TZM-bl cells incubated for 3 days by XTT assay
# Type: cell-based
# statedConditions: TZM-bl cells
Label Satisfied when CC50 at 72 h is strictly below 30 µM; at or above that, label Not satisfied.

compound="Cc1nc(C(CN)NC(=O)c2ccc(-c3ccc(Cl)cc3)n2C)sc1CO (stereo in doubt; 26A)" classname="Not satisfied"

In the record for Cc1nc(C(CN)NC(=O)c2cnc(-c3ccc(Cl)cc3)[nH]2)sc1CO (stereo not drawn) , is CC50 at 72 h less than 30 µM?
Not satisfied

In the record for COc1ccc(-c2ccc(C(=O)NC(CN)c3ncc(CO)s3)[nH]2)cc1OC (stereo not drawn) , is CC50 at 72 h less than 30 µM?
Not satisfied

In the record for CNCC(NC(=O)c1ccc(-c2ccc(Cl)c(F)c2)[nH]1)c1ncc(CO)s1 (stereo in doubt; 86A) , is CC50 at 72 h less than 30 µM?
Satisfied

* * *

# assayedTarget: Cytochrome P450 3A4 (Homo sapiens)
# Sequence (P08684 whole entry): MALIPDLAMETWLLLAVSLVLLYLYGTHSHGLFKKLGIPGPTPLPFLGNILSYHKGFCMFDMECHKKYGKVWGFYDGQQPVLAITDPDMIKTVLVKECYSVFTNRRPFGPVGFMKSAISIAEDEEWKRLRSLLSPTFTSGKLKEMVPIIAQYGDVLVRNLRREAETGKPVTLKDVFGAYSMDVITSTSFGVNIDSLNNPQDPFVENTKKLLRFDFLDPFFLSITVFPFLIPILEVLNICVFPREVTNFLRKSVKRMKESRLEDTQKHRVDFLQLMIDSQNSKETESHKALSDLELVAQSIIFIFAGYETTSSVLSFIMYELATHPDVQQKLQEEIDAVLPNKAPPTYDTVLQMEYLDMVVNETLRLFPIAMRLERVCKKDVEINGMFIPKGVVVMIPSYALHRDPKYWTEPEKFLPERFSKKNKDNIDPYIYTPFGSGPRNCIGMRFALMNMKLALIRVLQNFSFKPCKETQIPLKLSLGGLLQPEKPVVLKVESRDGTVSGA
observationType: IC50

For the 3 molecules below, give their IC50 values.
1. NCC(NC(=O)c1ccc(-c2cc(F)c(Cl)c(F)c2)[nH]1)c1ncc(CO)s1 (stereo in doubt)
2. Cc1ccc(-c2ccc(C(=O)NC(CN)c3ncc(CO)s3)[nH]2)cc1F (stereo in doubt)
3. Cc1nc(C(NC(=O)c2ccc(-c3ccc(Cl)cc3)[nH]2)C2CCCCN2)sc1CO (stereo not drawn)

> 25 µM
> 25 µM
> 25 µM

* * *

pIC50: −log10 of the molar value.
Measurement record for Cytochrome P450 2C19 (Homo sapiens); quantity recorded: pIC50.

molecule="Cc1nc(C(NC(=O)c2ccc(-c3ccc(Cl)cc3)[nH]2)C2CCCCN2)sc1CO (stereo not drawn)" assayedtarget="Cytochrome P450 2C19 (Homo sapiens)" reading="< 4.60"

For the 2 molecules below, give their pIC50 values.
1. Cc1ccc(-c2ccc(C(=O)NC(CN)c3ncc(CO)s3)[nH]2)cc1F (stereo in doubt)
2. NCC(NC(=O)c1ccc(-c2cc(F)c(Cl)c(F)c2)[nH]1)c1ncc(CO)s1 (stereo in doubt)

1. < 4.60
2. < 4.60

* * *

# System: Human immunodeficiency virus 1
# assayProtocol: Antiviral activity against ENV pseudotyped CCR5-tropic HIV1 p1054.TC4.1499
# Format: functional
observationType: IC50 (nM)
Numbers only, in nM.

Return IC50 measured with Human immunodeficiency virus 1 given this molecule: Cc1ccc(-c2ccc(C(=O)NC(CN)c3ncc(CO)s3)[nH]2)cc1F (stereo in doubt)
400

* * *

Could you please report measured pIC50 for the items listed next?
# Test system: Human immunodeficiency virus 1
# assayProtocol: Antiviral activity against ENV pseudotyped CCR5-tropic HIV1 subtype C 225925-2, clone 22
# Assay type: functional
# statedConditions: Human immunodeficiency virus 1, subtype C 225925-2, clone 22
Give bare numbers, as −log10 of the molar value.

compound="Cc1ccc(-c2ccc(C(=O)NC(CN)c3ncc(CO)s3)[nH]2)cc1F (stereo in doubt)" reading=6.47
compound="Cc1nc(C(NC(=O)c2ccc(-c3ccc(Cl)cc3)[nH]2)C2CCCCN2)sc1CO (stereo not drawn)" reading=5.96

Here's the next entry for you.
Return pIC50 measured with Human immunodeficiency virus 1 given this compound: NCC(NC(=O)c1ccc(-c2cc(F)c(Cl)c(F)c2)[nH]1)c1ncc(CO)s1 (stereo in doubt)
6.48

* * *

# assayedTarget: Cytochrome P450 2C9 (Homo sapiens, UniProt P11712)
# Sequence (P11712 whole entry): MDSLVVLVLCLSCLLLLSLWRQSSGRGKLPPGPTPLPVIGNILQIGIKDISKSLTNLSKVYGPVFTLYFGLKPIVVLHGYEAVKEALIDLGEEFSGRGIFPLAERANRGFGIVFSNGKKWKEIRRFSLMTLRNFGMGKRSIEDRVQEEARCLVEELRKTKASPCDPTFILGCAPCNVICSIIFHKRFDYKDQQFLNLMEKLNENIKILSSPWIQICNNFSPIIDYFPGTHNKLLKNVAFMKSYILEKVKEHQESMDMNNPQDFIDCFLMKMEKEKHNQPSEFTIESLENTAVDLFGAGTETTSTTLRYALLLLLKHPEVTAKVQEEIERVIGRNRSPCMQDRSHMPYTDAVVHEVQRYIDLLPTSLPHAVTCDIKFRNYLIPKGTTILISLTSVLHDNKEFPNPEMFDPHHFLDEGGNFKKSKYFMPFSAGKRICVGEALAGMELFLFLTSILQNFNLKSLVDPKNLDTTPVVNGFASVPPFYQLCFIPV
# assayProtocol: Inhibition of CYP2C9 in human liver microsomes using tolbutamide as substrate after 60 mins in presence of NADPH by LC-MS/MS analysis
# Type: ADME
pIC50: −log10 of the molar value.
observationType: pIC50

Check out these entries, answers already filled in.
molecule="NCC(NC(=O)c1ccc(-c2cc(F)c(Cl)c(F)c2)[nH]1)c1ncc(CO)s1 (stereo in doubt)" reading="< 4.60"
molecule="Cc1nc(C(NC(=O)c2ccc(-c3ccc(Cl)cc3)[nH]2)C2CCCCN2)sc1CO (stereo not drawn)" reading="< 4.60"

Entry Cc1ccc(-c2ccc(C(=O)NC(CN)c3ncc(CO)s3)[nH]2)cc1F (stereo in doubt) has what pIC50?
< 4.60
